src = patent US20250145684A1

Some binders, each annotated with its measured peptide exchange yield.
- system under test: T1, HLA-B*08:01 (human)
- T1 construct: MHC monomer first loaded with a UV-sensitive peptide that is cleaved by UV light and exchanged for the test peptide
- method summary: UV peptide exchange ELISA

A selection of reference data follows.
- RIPEKASFL [RIPEKASFL (SEQ ID NO: 202)]: 20 to 50%
- EGVPPGTVL [EGVPPGTVL (SEQ ID NO: 243)]: 50 to 75%
- ESMLKTTL [ESMLKTTL (SEQ ID NO: 40)]: 20 to 50%

Next item in the queue.
Prompt: I would be grateful if you could share the reported peptide exchange yield for GPRGPSSGHPL [GPRGPSSGHPL (SEQ ID NO: 245)] .
Response: 20 to 50%
